TESTED_TARGET: T1, human FcRn/b2M (human, UniProt P61769 21-119, biotinylated)
T1 construct: bought recombinant biotinylated protein (ACRO FCM-H82W4 or Immunitrack ITF01); also called hFcRn; hFcRn/hb2M
PROTOCOL_TEXT: SPR pH 6.0
pKd: −log10 of the molar value.
READOUT_KIND: pKd

T026301057 (VHH, name in Kabat numbering, tagless) VHH: EVQLVESGGGVVQPGGSLRLSCAASGFTFSEYAMYWVRQAPGKGLEWVSAISQGGGSTDYADSVKGRFTISRDNSKNTLYLQMNSLRPEDTALYYCAADTLYTSLTSYSYWGQGTLVTVSS    6.41
T026301099 (VHH, name in Kabat numbering, tagless) VHH: EVQLVESGGGVVQPGGSLRLSCAASGFTFSEYDMYWVRQAPGKGLEWVSAISSGGGSTDYADSVKGRFTISRDNSKNTLYLQMNSLRPEDTALYYCAADTLYTSLTWYSYWGQGTLVTVSS    7.52
T026301076 (VHH, name in Kabat numbering, tagless) VHH: EVQLVESGGGVVQPGGSLRLSCAASGFTFSSYDMYWVRQAPGKGLEWVSAISQGGGSTDYADSVKGRFTISRDNSKNTLYLQMNSLRPEDTALYYCAADTLYTSLTKYSYWGQGTLVTVSS    6.92
T026301079 (VHH, name in Kabat numbering, tagless) VHH: EVQLVESGGGVVQPGGSLRLSCAASGFTFSSYAMYWVRQAPGKGLEWVSAISQGGGSTDYADSVKGRFTISRDNSKNTLYLQMNSLRPEDTALYYCAADTLYTSLTSYSYWGQGTLVTVSS    6.92

(I) T026301080 (VHH, name in Kabat numbering, tagless) VHH: EVQLVESGGGVVQPGGSLRLSCAASGFTFSSYDMYWVRQAPGKGLEWVSAISSGGGSTDYADSVKGRFTISRDNSKNTLYLQMNSLRPEDTALYYCAADTLYTSLTSYSYWGQGTLVTVSS
(II) T026301063 (VHH, name in Kabat numbering, tagless) VHH: EVQLVESGGGVVQPGGSLRLSCAASTFTFSSYAMYWVRQAPGKGLEWVSAISQGGGSTDYADSVKGRFTISRDNSKNTLYLQMNSLRPEDTALYYCAADTLYTSLTWYSYWGQGTLVTVSS
(III) T026301091 (VHH, name in Kabat numbering, tagless) VHH: EVQLVESGGGVVQPGGSLRLSCAASGFTFSEYDMYWVRQAPGKGLEWVSAISSGGGSTDYADSVKGRFTISRDNSKNTLYLQMNSLRPEDTALYYCAADTLYTSLTSYSYWGQGTLVTVSS
Task field, ranking: reported pKd, descending order. Give the labels in the order specified. II, I, III

Value source: patent US20240132624A1
